Note to self: these compounds have pIC50 reported for IRAK4 (Homo sapiens (Human)) in various publications.
pIC50: −log10 of the molar value.
EXPERIMENTAL_READOUT: pIC50

Give the measured pIC50 of CC(C)(F)CNc1cc(Nc2cc3scnc3cc2F)ncc1C(=O)NC[C@@H](F)C(C)(C)O .
8.55

Please look up its pIC50: COc1cc2nn([C@H]3C[C@@H](C(C)(C)O)C3)cc2cc1NC(=O)c1cccc(C(F)(F)F)n1
7.89

(1) COC(=O)NCCc1cn(-c2cnc(-n3ncc4cc(C#N)cnc43)cc2NC(C)C)nn1
(2) Cc1cc(C)cc(Nc2ncc(-c3nc4ccccc4s3)c(N[C@@H]3C[C@H](CO)[C@@H](O)[C@H]3O)n2)c1
(3) COC(=O)NC1CCC(Nc2nn(C(C)C)c3c2cnn2cc(-c4ccncc4)cc32)CC1 (stereo not shown)
Reorder the items by pIC50, least to greatest. Put the labels in the requested order and list them out.
3, 1, 2
